Data credit: patent US20240400575A1

# Experimental target: recombinant human sEH (hsEH) (Homo sapiens)
# Sequence (P34913 1-555): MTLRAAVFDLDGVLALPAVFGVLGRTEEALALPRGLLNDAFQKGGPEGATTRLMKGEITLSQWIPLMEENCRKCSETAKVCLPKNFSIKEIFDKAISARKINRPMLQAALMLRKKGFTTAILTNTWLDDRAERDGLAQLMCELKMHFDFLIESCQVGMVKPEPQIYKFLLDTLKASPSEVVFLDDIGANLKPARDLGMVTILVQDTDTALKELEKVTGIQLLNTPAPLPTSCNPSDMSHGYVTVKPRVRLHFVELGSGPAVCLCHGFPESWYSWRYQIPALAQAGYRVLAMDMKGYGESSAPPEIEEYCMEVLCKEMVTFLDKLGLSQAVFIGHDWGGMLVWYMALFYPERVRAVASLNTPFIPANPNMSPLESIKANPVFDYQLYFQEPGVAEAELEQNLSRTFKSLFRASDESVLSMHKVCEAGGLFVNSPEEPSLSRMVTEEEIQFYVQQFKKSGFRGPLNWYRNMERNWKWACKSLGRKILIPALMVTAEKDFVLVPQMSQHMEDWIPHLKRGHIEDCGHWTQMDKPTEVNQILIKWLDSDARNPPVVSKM
# Test name: In vitro determination of sEH inhibition activity (fluorescent assay, PHOME substrate)
# Measurement conditions: fluorescence, Bis/Tris HCl pH 7.0 with 0.1 mg/mL BSA
pIC50: −log10 of the molar value.
Test readout: pIC50

State its pIC50: CC12CC3CC(NC(=O)NC4CC5CCC(C4)N5Cc4ccccc4)(CC(C1)c1ccccc13)C2 (centres unmarked) [Example 67]
> 8.00

State its pIC50: CC(=O)c1ccc2c(c1)C1CC3(C)CC2CC(NC(=O)NC2CCN(C(C)=O)CC2)(C1)C3 (centres unmarked) [Example 51]
> 8.00

State its pIC50: CC(=O)N1CCC(NC(=O)NC23CC4CC(C)(CC(C2)c2cc(N)ccc24)C3)CC1 (centres unmarked) [Example 53]
7.30 to 8.00

State its pIC50: CC(=O)N1CCC(NC(=O)NC23CC4CC(C)(CC(C2)c2ccccc24)O3)CC1 [Example 36]
6.00 to 7.00

State its pIC50: CC12CC3CC(NC(=O)Nc4ccc(F)c(F)c4F)(CC(C1)c1ccccc13)C2 [Example 58]
> 8.00

State its pIC50: CC(=O)c1ccc(N2CCC(NC(=O)NC34CC5CC(C)(CC(C3)c3ccccc35)C4)CC2)cc1 [Example 64]
> 8.00

State its pIC50: CC12CC3CC(NC(=O)NC4CCN(Cc5ccccc5)CC4)(CC(C1)c1ccccc13)C2 [Example 48]
> 8.00

State its pIC50: CC(=O)N1CCC(NC(=O)NC23CC4CC2CC(C3)c2ccccc24)CC1 [Example 72]
7.30 to 8.00

State its pIC50: CC(=O)N1CCC(NC(=O)NC23CC4CC(C)(CC(C2)c2cc([N+](=O)[O-])ccc24)C3)CC1 (centres unmarked) [Example 52]
> 8.00

State its pIC50: CC12CC3CC(NC(=S)Nc4ccc(C(F)(F)F)cc4)(CC(C1)c1ccccc13)C2 [Example 35]
6.00 to 7.00

New cases:
State its pIC50: CC(=O)N1CCC(CC(=O)NC23CC4CC(C)(CC(C2)c2ccccc24)C3)CC1 [Example 57]
6.00 to 7.00

State its pIC50: CC(=O)N1CCC(NC(=O)NC23CC4CC(C)(CC(C2)c2cc(F)ccc24)C3)CC1 (centres unmarked) [Example 68]
> 8.00

State its pIC50: COc1cc2c(cc1OC)C1CC3(C)CC2CC(NC(=O)NC2CCN(C(C)=O)CC2)(C1)C3 [Example 71]
> 8.00

State its pIC50: CC(=O)N1CCC(NC(=O)NC23CC4CC(F)(CC(C2)c2c(F)cccc24)C3)CC1 (centres unmarked) [Example 74]
> 8.00

State its pIC50: CC12CC3CC(NC(=O)CC4CCN(Cc5ccccc5)CC4)(CC(C1)c1ccccc13)C2 [Example 60]
6.00 to 7.00

State its pIC50: COC12CC3CC(NC(=O)Nc4nc5ccccc5s4)(CC(C1)c1ccccc13)C2 [Example 73]
6.00 to 7.00

State its pIC50: CC(C)S(=O)(=O)N1CCC(CC(=O)NC23CC4CC(C)(CC(C2)c2ccccc24)C3)CC1 [Example 56]
7.30 to 8.00

State its pIC50: CC12CC3CC(NC(=O)NC4CCC(Oc5ccc(C(=O)O)cc5)CC4)(CC(C1)c1ccccc13)O2 (centres unmarked) [Example 43]
7.30 to 8.00

State its pIC50: CC(=O)N1CCC(NC(=O)NC23CC4CC(C)(CC(C2)c2c(F)cccc24)C3)CC1 (centres unmarked) [Example 70]
> 8.00

State its pIC50: COc1ccc2c(c1)C1CC3(C)CC2CC(NC(=O)NC2CCN(C(C)=O)CC2)(C1)C3 (centres unmarked) [Example 69]
> 8.00

State its pIC50: CC12CC3CC(NC(=O)NC4CCN(C(=O)c5ccccc5F)CC4)(CC(C1)c1ccccc13)C2 [Example 66]
> 8.00

State its pIC50: CC12CC3CC(NC(=O)NC4CCC(Oc5ccc(C(=O)O)cc5)CC4)(CC(C1)c1ccccc13)C2 (centres unmarked) [Example 44]
> 8.00

State its pIC50: CC12CC3CC(NC(=O)Nc4ccc(F)c(F)c4F)(CC(C1)c1ccccc13)O2 [Example 59]
7.30 to 8.00
